Biological target: human MT1-MMP/MMP-14 (catalytic domain) (Homo sapiens, UniProt P50281)
Construct: human MT1-MMP/MMP-14 (catalytic domain); purchased Calbiochem (San Diego, CA, USA)
Assay: Enzyme inhibition kinetics, fluorogenic substrate ES001
Format: biochemical
Settings: MMP-14; 100 μM compound; in words
observationType: inhibitory effect on enzymatic activity

INSERT INTO assay_data (compound, result) VALUES
  ('NC(=O)C(CCC(=O)O)NC(=O)C(CCC(=O)O)NC(=O)C(Cc1cc(-c2ccc(-c3cccc(Cl)c3)cc2)no1)CP(=O)(O)c1ccc(Br)cc1 (centres unmarked)', 'strong inhibition'),
  ('CC(NC(=O)OCc1ccccc1)P(=O)(O)CC(Cc1ccccc1)C(=O)O (centres unmarked)', 'weak or no inhibition'),
  ('NC(=O)C(Cc1c[nH]c2ccccc12)NC(=O)C(CCCc1ccccc1)CP(=O)(O)C(Cc1ccccc1)NC(=O)OCc1ccccc1 (centres unmarked)', 'strong inhibition'),
  ('CC(=O)NC(CC(C)C)C(=O)CC(C)P(=O)(O)CC(Cc1ccccc1)C(=O)O (centres unmarked)', 'weak or no inhibition');

Then this compound:
Please supply the value of reported inhibitory effect on enzymatic activity for the item CCOC(=O)C(CO)CP(=O)(O)C(Cc1ccccc1)NC(=O)OCc1ccccc1 (centres unmarked) weak or no inhibition

* * *

Biological target: human MT1-MMP/MMP-14 (catalytic domain) (Homo sapiens)
Construct: human MT1-MMP/MMP-14 (catalytic domain); purchased Calbiochem (San Diego, CA, USA)
Assay: Enzyme inhibition kinetics, fluorogenic substrate ES001
Format: biochemical
observationType: pKi
Answer as the number alone; pKi is minus log10 of concentration in mol/L.

Recall the reported pKi of NC(=O)C(CCC(=O)O)NC(=O)C(CCC(=O)O)NC(=O)C(Cc1cc(-c2ccc(-c3cccc(Cl)c3)cc2)no1)CP(=O)(O)c1ccc(Br)cc1 (stereo not shown) [H-1] when tested on human MT1-MMP/MMP-14 (catalytic domain) (Homo sapiens). 6.05

* * *

This section presents compounds with their documented remaining activity at 100 µM values.
Target: pseudolysin (PLN, LasB) (Pseudomonas aeruginosa, UniProt P14756)
Construct: purchased Calbiochem (San Diego, CA, USA)
Sequence (P14756 198-498): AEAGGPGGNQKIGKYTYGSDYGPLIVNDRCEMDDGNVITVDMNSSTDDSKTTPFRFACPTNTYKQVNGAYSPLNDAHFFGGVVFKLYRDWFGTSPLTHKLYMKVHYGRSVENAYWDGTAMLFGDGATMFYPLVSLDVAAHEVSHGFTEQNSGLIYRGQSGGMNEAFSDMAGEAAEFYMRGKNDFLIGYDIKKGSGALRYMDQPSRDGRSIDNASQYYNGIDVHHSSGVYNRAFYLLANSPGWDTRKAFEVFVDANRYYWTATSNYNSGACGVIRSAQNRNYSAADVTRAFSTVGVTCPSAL
Assay: Enzyme inhibition kinetics, fluorogenic substrate ES005
Type: biochemical
Settings: 0.25 h, read-out: vi/v0 avg, Pseudolysin; 100 µM inhibitor; 15 min pre incubation
// note: answer is a bare numeric in %

Please supply the value of reported remaining activity at 100 µM for the item NC(=O)C(CCC(=O)O)NC(=O)C(CCC(=O)O)NC(=O)C(Cc1cc(-c2ccc(-c3cccc(Cl)c3)cc2)no1)CP(=O)(O)c1ccc(Br)cc1 (stereo not shown) 100

Please supply the value of reported remaining activity at 100 µM for the item CC(NC(=O)OCc1ccccc1)P(=O)(O)CC(Cc1ccccc1)C(=O)O (stereo not shown) 75.4

Please supply the value of reported remaining activity at 100 µM for the item NC(=O)C(Cc1c[nH]c2ccccc12)NC(=O)C(CCCc1ccccc1)CP(=O)(O)C(Cc1ccccc1)NC(=O)OCc1ccccc1 (stereo not shown) 29.7

Please supply the value of reported remaining activity at 100 µM for the item CCOC(=O)C(CO)CP(=O)(O)C(Cc1ccccc1)NC(=O)OCc1ccccc1 (stereo not shown) 86.2

* * *

Molecular target: Mag-Trypsin activated MMP-9 (MMP-9(MT)) (Homo sapiens)
Construct: made in house; host or cells: Sf9 and High Five insect cells
Sequence (P14780 107-707 limits assumed): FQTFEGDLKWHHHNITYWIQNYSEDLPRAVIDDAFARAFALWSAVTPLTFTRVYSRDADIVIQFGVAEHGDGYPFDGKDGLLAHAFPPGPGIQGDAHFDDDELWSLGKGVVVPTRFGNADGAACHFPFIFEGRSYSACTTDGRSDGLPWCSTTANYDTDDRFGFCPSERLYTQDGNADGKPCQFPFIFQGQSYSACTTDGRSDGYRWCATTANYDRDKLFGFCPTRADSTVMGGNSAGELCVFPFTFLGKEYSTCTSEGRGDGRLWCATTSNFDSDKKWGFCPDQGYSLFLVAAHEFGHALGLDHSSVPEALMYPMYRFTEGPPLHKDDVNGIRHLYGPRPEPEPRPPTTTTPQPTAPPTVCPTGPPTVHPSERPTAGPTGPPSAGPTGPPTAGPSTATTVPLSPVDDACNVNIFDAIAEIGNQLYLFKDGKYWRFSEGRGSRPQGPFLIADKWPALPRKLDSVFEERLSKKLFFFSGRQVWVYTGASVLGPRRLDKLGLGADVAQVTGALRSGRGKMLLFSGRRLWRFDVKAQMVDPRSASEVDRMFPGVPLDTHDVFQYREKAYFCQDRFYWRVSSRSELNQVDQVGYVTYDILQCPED
Experiment: Enzyme inhibition kinetics, fluorogenic substrate ES001
Type: biochemical
observationType: pKi
Answer as the number alone; pKi is minus log10 of concentration in mol/L.

Recall the reported pKi of NC(=O)C(CCC(=O)O)NC(=O)C(CCC(=O)O)NC(=O)C(Cc1cc(-c2ccc(-c3cccc(Cl)c3)cc2)no1)CP(=O)(O)c1ccc(Br)cc1 (stereo not shown) when tested on Mag-Trypsin activated MMP-9 (MMP-9(MT)) (Homo sapiens). 4.52
